Every entry's value here was drawn from patent US10577349B2.

Measured pIC50 values are reported for all entries that follow.
Molecular target: EmCV Cap-dependent translation
Assay: In vitro translation assay, FF-EmCV-Ren construct, cap-dependent (FF luciferase)
pIC50: −log10 of the molar value.
Readout Kind: pIC50

# Compound, Recorded Measurement
rows = [
    ("COCCn1c(/C=C/C(=O)c2c(-c3ccccc3)c3cc(Cl)ccc3[nH]c2=O)nc2ccccc21", "5.00 to 5.70"),
    ("O=C(/C(Br)=C/c1cncc(F)c1)c1c(-c2ccccc2)c2cc(Cl)ccc2[nH]c1=O (single isomer, unassigned)", "5.00 to 5.70"),
    ("O=C(/C=C/c1ccccn1)c1c(-c2cncc(Cl)c2)c2cc(Cl)ccc2[nH]c1=O", "4.70 to 5.00"),
    ("O=C(/C=C/c1cncc(Cl)c1)c1c(-c2ccccc2)c2cc(Cl)ccc2[nH]c1=O", "5.00 to 5.70"),
    ("O=C(/C=C/c1nc2ccccc2[nH]1)c1c(-c2ccccc2)c2cc(C(F)(F)F)ccc2[nH]c1=O", "5.00 to 5.70"),
    ("O=C(/C=C/c1ccccc1)c1c(-c2cccs2)c2cc(Cl)ccc2[nH]c1=O", "5.00 to 5.70"),
    ("O=C(/C=C/c1ccccn1)c1c(-c2ccc(Cl)cc2)c2cc(Cl)ccc2[nH]c1=O", "5.00 to 5.70"),
    ("Cc1ccnc(-c2c(C(=O)/C=C/c3ccccn3)c(=O)[nH]c3ccc(Cl)cc23)c1", "< 4.70"),
    ("Cn1c(/C=C/C(=O)c2c(-c3ccccc3)c3cc(Cl)ccc3n(C)c2=O)nc2ccccc21", "5.00 to 5.70"),
    ("O=C(/C=C/c1ccc(F)cc1C(F)(F)F)c1c(-c2ccccc2)c2cc(Cl)ccc2[nH]c1=O", "5.00 to 5.70"),
    ("CN(C)c1ccc(/C=C/C(=O)c2c(-c3ccccc3)c3cc(Cl)ccc3[nH]c2=O)cc1", "< 4.70"),
    ("Cc1ccc(-c2c(C(=O)/C=C/c3ccccn3)c(=O)[nH]c3ccc(Cl)cc23)cc1", "5.00 to 5.70"),
    ("O=C(/C=C/c1cc2ccccc2s1)c1c(-c2ccccc2)c2cc(Cl)ccc2[nH]c1=O", "5.00 to 5.70"),
    ("COc1ccc(-c2c(C(=O)/C=C/c3ccccn3)c(=O)[nH]c3ccc(Cl)cc23)cc1", "5.00 to 5.70"),
    ("N#Cc1cncc(-c2c(C(=O)/C=C/c3cncc(F)c3)c(=O)[nH]c3ccc(Cl)cc23)c1", "4.70 to 5.00"),
    ("O=C(/C=C/c1cncc(C(F)(F)F)c1)c1c(-c2ccccc2)c2cc(Cl)ccc2[nH]c1=O", "5.00 to 5.70"),
]
